Listed sequences paired with reported phosphorylation enrichment
target: FGFR1 (UniProt P11362); assay: phosphorylation enrichment, bacterial display (enrichment ratio); higher = better substrate or ligand; peptides without Tyr show the background;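 also: 11-residue human phosphosite peptides and single-mutation variants displayed on the E. coli surface, counted by deep sequencing, each peptide's frequency after selection divided by its frequency in the unselected input library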;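 also: frequency after pTyr selection over input frequency; kinase dosed for 20-30% of maximal phosphorylation in three min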
Sequence (P11362 whole entry, looked up): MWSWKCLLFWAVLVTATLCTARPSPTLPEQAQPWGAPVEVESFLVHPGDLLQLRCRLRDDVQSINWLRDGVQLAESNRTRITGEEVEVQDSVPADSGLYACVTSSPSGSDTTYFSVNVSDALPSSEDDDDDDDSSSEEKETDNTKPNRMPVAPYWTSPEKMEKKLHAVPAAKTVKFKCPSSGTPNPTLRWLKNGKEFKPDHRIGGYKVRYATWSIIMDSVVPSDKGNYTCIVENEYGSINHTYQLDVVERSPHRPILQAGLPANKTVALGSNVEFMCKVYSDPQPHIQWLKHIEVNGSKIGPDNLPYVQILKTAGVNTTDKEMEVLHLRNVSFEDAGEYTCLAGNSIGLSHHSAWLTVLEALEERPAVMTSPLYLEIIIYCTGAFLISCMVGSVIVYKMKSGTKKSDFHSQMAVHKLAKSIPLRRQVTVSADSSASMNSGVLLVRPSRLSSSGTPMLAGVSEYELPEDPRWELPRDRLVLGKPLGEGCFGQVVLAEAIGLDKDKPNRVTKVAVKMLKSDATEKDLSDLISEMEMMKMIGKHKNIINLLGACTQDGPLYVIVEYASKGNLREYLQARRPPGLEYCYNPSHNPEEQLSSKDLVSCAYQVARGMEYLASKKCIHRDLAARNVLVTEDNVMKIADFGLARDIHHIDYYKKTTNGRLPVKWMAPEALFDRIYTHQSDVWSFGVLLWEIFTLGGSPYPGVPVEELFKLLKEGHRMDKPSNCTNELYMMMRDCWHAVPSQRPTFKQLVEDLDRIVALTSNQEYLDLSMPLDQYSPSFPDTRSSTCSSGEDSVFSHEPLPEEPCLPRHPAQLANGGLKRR
// keep it numeric: no unit symbol after the value

A selection of reference data follows.
- residue-string: "YAKSVYWENTL [NUP107_Y296]"
  phosphorylation enrichment: 0.49
- residue-string: "YASALYRQRRS [FGF11_Y162]"
  phosphorylation enrichment: 0.507
- residue-string: "TGNPAYRSFSN [IL4R_Y497_A492T]"
  phosphorylation enrichment: 0.406
- residue-string: "RGDCMYAPLLG [AR_Y269]"
  phosphorylation enrichment: 3.08
- residue-string: "QDEPTYARSSK [PEAK1_Y616_H611Q]"
  phosphorylation enrichment: 0.603
- residue-string: "QGLRLYRTHLA [BTK_Y617_P619T]"
  phosphorylation enrichment: 0.306

Enquiry: Name the reported phosphorylation enrichment value associated with the sequence LNPLFYSLRNK [OR5R1_Y290_I289F]
Return: 0.481

Enquiry: Give the measured phosphorylation enrichment of TLAHKYHGGGG [HBB_Y146_A141T] .
Return: 0.611

Enquiry: Dear colleague, I am looking for the recorded phosphorylation enrichment of the following sequence: AQMAMYFWEMG [TRPM4_Y577]
Return: 3.25

Data credit: the supplement of paper PMC10065799
